Kindly supply the reported glucoside values for the records listed here.
# System: β-Xylosidase derived from pectinase G
# Assay comment: Reactivity toward various isoflavone glycosides (HPLC)
# Type: biochemical
# Set-up: unit not given here
# Reported conditions: Reaction time 3 h; 55 °C, pH 4.0
I'd appreciate a reply containing only the number, no unit.

Sure, the documented glucoside for CC(=O)OC[C@H]1O[C@@H](Oc2ccc3c(=O)c(-c4ccc(O)cc4)coc3c2)[C@H](O)[C@@H](O)[C@@H]1O [acetyldaidzin, 6″-O-acetyldaidzin] is 98.7

Sure, the documented glucoside for O=c1c(-c2ccc(O)cc2)coc2cc(O[C@@H]3O[C@H](CO)[C@@H](O)[C@H](O)[C@H]3O)ccc12 [daidzin] is 76

Sure, the documented glucoside for O=C(O)CC(=O)OC[C@H]1O[C@@H](Oc2ccc3c(=O)c(-c4ccc(O)cc4)coc3c2)[C@H](O)[C@@H](O)[C@@H]1O [malonyldaidzin, 6″-O-malonyldaidzin] is 98.4

Sure, the documented glucoside for O=C(O)CC(=O)OC[C@H]1O[C@@H](Oc2cc(O)c3c(=O)c(-c4ccc(O)cc4)coc3c2)[C@H](O)[C@@H](O)[C@@H]1O [malonylgenistin, 6″-O-malonylgenistin] is 99.4

Sure, the documented glucoside for O=c1c(-c2ccc(O)cc2)coc2cc(O[C@@H]3O[C@H](CO)[C@@H](O)[C@H](O)[C@H]3O)cc(O)c12 [genistin] is 98.2

Sure, the documented glucoside for COc1cc2c(=O)c(-c3ccc(O)cc3)coc2cc1O[C@@H]1O[C@H](COC(=O)CC(=O)O)[C@@H](O)[C@H](O)[C@H]1O [malonylglycitin, 6″-O-malonylglycitin] is 100
